Give pIC50 for every item shown.
Tested on: VERO kidney epithelial cells
Assay: VERO toxicity assessment
Details: Chlorocebus sabaeus, Vero, read-out: VERO: IC50
pIC50: −log10 of the molar value.

Known results for compounds:
CCc1nc2sc(C)cn2c1C(=O)NCc1ccc2ccn(C)c2c1    > 4.49
Cc1nc2sc(Cl)cn2c1C(=O)NCc1ccc(N(C)C)cc1    > 4.49
Cc1cn2c(C(=O)NCc3ccc(Oc4ccc(C(F)(F)F)cc4)cc3)c(C)nc2s1    4.49 to 4.70

Give pIC50 for each listed item.
1. Cc1nn2c(C(=O)NCc3ccc(Oc4ccc(F)cc4)cc3)c(C)nc2s1
2. Cc1nc2sc(C(F)(F)F)cn2c1C(=O)NCc1ccc2c(c1)OCC2
3. Cc1cn2c(C(=O)NCc3ccc(Oc4ccc(F)cc4)cc3)c(C)nc2s1

1. 4.49 to 4.70
2. > 4.49
3. 5.00 to 5.70

The following compounds each have a reported value; give each one's pIC50.
1. Cc1nc2sc(F)cn2c1C(=O)NCc1ccc2c(c1)OCC2
2. Cc1cn2c(C(=O)NCc3ccc(N4CCCC4)cc3)c(C)nc2s1
3. Cc1cn2c(C(=O)NCc3cccc(N4CCC(c5ccc(F)cc5)CC4)c3)c(C)nc2s1
4. CCc1nc2sc(C)cn2c1C(=O)NCc1ccc(N(C)C)cc1
5. Cc1cn2c(C(=O)NCc3cccc(OC(F)(F)F)c3)c(C)nc2s1
6. CC1=Nn2c(nc(C)c2C(=O)NCc2ccc(Oc3ccc(F)cc3)cc2)C1

1: > 4.49; 2: 4.49 to 4.70; 3: 4.49 to 4.70; 4: > 4.49; 5: > 4.49; 6: 4.49 to 4.70

Parameters: items (list). Returns: pIC50 for each item.
1. Cc1nc2sc(Cl)cn2c1C(=O)NCc1ccc(C(F)(F)F)cc1
2. CCc1nc2sc(C)cn2c1C(=O)NCc1ccc(N2CCC(c3ccc(F)cc3)CC2)cc1
3. Cc1cn2c(C(=O)NCc3cccc(N4CCN(c5ccc(F)cc5)CC4)c3)c(C)nc2s1
4. Cc1nn2c(C(=O)NCc3ccc(Oc4ccc(F)cc4)cc3)c(C)nc2o1
5. Cc1cn2c(C(=O)NCc3ccc(N4CCOCC4)c(Cl)c3)c(C)nc2s1

1: > 4.49; 2: 4.70 to 5.00; 3: 4.49 to 4.70; 4: 4.49 to 4.70; 5: 4.49 to 4.70

I would be grateful if you could provide pIC50 for each of the following entries.
1. Cc1cn2c(C(=O)NCc3ccc4ocnc4c3)c(C)nc2s1
2. Cc1cn2c(C(=O)NCc3ccc4ccn(C)c4c3)c(C)nc2s1

1: > 4.49; 2: > 4.49

----------
System: VERO kidney epithelial cells
Experiment: VERO toxicity assessment
Conditions: Chlorocebus sabaeus, Vero, read-out: VERO: IC50
pIC50: −log10 of the molar value.
MEASUREMENT TYPE: pIC50

Cc1cn2c(C(=O)NCc3ccc(Oc4ccc(Cl)cc4)cc3)c(C)nc2s1 [ND-020060]    4.70 to 5.00
CCOc1cccc(CNC(=O)c2c(C)nc3sc(C)cn23)c1 [ND-020029]    > 4.49

Fill in pIC50 for each of the 2 compounds listed.
1. Cc1cn2c(C(=O)NCc3cccc(Cl)c3)c(C(F)(F)F)nc2s1 [ND-020014]
2. Cc1cn2c(C(=O)NCc3cccc(C(F)(F)F)c3)c(C)nc2s1 [ND-020008]

> 4.49
> 4.49

----------
Tested on: VERO kidney epithelial cells
Test: VERO toxicity assessment
Conditions: Chlorocebus sabaeus, Vero, read-out: VERO: IC50
MEASUREMENT TYPE: IC50

Cc1cn2c(C(=O)NCc3ccc(N4CC(C)OC(C)C4)cc3)c(C)nc2s1 (stereo not shown) [ND-020074]    20 to 32 µM
Cc1cn2c(C(=O)NCCc3ccc(Cl)cc3)c(C)nc2s1 [ND-020081]    < 32 µM
COC(=O)c1c(C)nc2sc(C)c(C)n12 [ND-009744]    < 32 µM
CCc1nc2sc(Cl)cn2c1C(=O)NCc1ccc(Oc2ccc(Cl)cc2)cc1 [ND-020053]    20 to 32 µM
Cc1cn2c(C(=O)NCc3ccc(F)cc3)c(C)nc2s1 [ND-020003]    < 32 µM
Cc1cn2c(C(=O)NCc3ccc(-n4cccn4)cc3)c(C)nc2s1 [ND-020064]    20 to 32 µM
Cc1cn2c(C(=O)NCc3ccc4nc(-c5ccc(F)cc5)oc4c3)c(C)nc2s1 [ND-020066]    20 to 32 µM
Cc1cn2c(C(=O)NCc3cccc(N4CCCC4)c3)c(C)nc2s1 [ND-020073]    < 32 µM
CCc1nc2sc(C)cn2c1C(=O)NCc1ccc(N2CCOCC2)c(F)c1 [ND-020037]    < 32 µM
CCc1nc2sc(C)cn2c1C(=O)NCc1ccc2nc(-c3ccc(F)cc3)oc2c1 [ND-020067]    20 to 32 µM

Please look at the items below and tell me IC50 for each one, in order.
1. Cc1cn2c(C(=O)NCc3cccc(N4CC(C)CC(C)C4)c3)c(C)nc2s1 (stereo not shown) [ND-020068]
2. Cc1cn2c(C(=O)NCc3cccc(N4CCC(=O)CC4)c3)c(C)nc2s1 [ND-020072]
3. Cc1cn2c(C(=O)NCc3ccc(C(C)(C)C)cc3)c(C)nc2s1 [ND-020031]
4. Cc1cn2c(C(=O)Nc3ccc(-c4ccc(C(F)(F)F)cc4)cc3)c(C)nc2s1 [ND-020042]
5. Cc1cn2c(C(=O)NCc3ccccc3)c(C)nc2s1 [ND-009749]
6. Cc1cn2c(C(=O)NCc3cccc(N(C)C)c3)c(C)nc2s1 [ND-020019]

1. < 32 µM
2. < 32 µM
3. < 32 µM
4. < 32 µM
5. < 32 µM
6. < 32 µM

Please give IC50 for each item listed below.
1. Cc1cn2c(C(=O)NCc3ncc(C(F)(F)F)cc3Cl)c(C)nc2s1 [ND-020016]
2. COc1cccc(CNC(=O)c2c(C)nc3sc(C)cn23)c1 [ND-009763]
3. CCc1nc2sc(Cl)cn2c1C(=O)NCc1ccc(N(C)C)cc1 [ND-020023]

1. < 32 µM
2. < 32 µM
3. < 32 µM

----------
Assign pIC50 to each entry below.
Test system: VERO kidney epithelial cells
Assay: VERO toxicity assessment
Details: Chlorocebus sabaeus, Vero, read-out: VERO: IC50
pIC50: −log10 of the molar value.

Cc1cn2c(C(=O)NCc3ccccc3Cl)c(C)nc2s1 [ND-020001]    > 4.49

Provide reported pIC50 for each item, in the same order as listed.
1. Cc1cn2c(C(=O)NCc3cccc(F)c3)c(C)nc2s1 [ND-009762]
2. Cc1nc2sc(Cl)cn2c1C(=O)NCc1ccc2c(c1)OCC2 [ND-020062]
3. CCc1nc2sc(Cl)cn2c1C(=O)NCc1ccc(C(F)(F)F)cc1 [ND-020011]
4. CCc1nc2sc(C)cn2c1C(=O)NCc1ccc(N2CCN(c3ccc(F)cc3)CC2)cc1 [ND-020048]
5. Cc1cn2c(C(=O)NCc3cccc(Oc4ccc(Cl)cc4)c3)c(C)nc2s1 [ND-020058]
6. COc1ccc(CNC(=O)c2c(C)nc3sc(C)cn23)cc1 [ND-020027]

1: > 4.49; 2: > 4.49; 3: > 4.49; 4: 4.70 to 5.00; 5: 4.49 to 4.70; 6: > 4.49

Hi there! I need pIC50 for each item below, if you can.
1. Cc1nc2sc(Cl)cn2c1C(=O)NCc1ccc(N2CCOCC2)c(F)c1 [ND-020039]
2. Cc1cn2c(C(=O)NCc3ccc(N(C)C)cc3)c(C(F)(F)F)nc2s1 [ND-020025]

> 4.49
> 4.49

Consider the following items and state reported pIC50 for each.
1. Cc1cn2c(C(=O)Nc3ccc(-c4ccc(C(F)(F)F)cc4)nc3)c(C)nc2s1 [ND-020044]
2. Cc1cn2c(C(=O)NCc3ccc(-n4cnnc4)cc3)c(C)nc2s1 [ND-020065]
3. COc1cc(CNC(=O)c2c(C)nc3sc(C)cn23)ccn1 [ND-020017]
4. Cc1cn2c(C(=O)NCc3ccc(N4CCC(=O)CC4)cc3)c(C)nc2s1 [ND-020070]
5. Cc1cn2c(C(=O)NCc3cccc(N4CCOCC4)n3)c(C)nc2s1 [ND-020036]
6. CCOc1ccc(CNC(=O)c2c(C)nc3sc(C)cn23)cc1 [ND-020028]

> 4.49
4.49 to 4.70
> 4.49
4.49 to 4.70
> 4.49
> 4.49

Please give pIC50 for each item listed below.
1. COc1ccc(COC(=O)c2c(C)nc3sc(C)cn23)cc1 [ND-010050]
2. CCc1nc2sc(C)cn2c1C(=O)OC [ND-009743]
3. Cc1cn2c(C(=O)NCc3ccc(N4CCOCC4)c(F)c3)c(C)nc2s1 [ND-020034]
4. Cc1nc2sc(C)c(C)n2c1C(=O)NCc1ccc(C(F)(F)F)cc1 [ND-020013]
5. Cc1cn2c(C(=O)NCc3cccc(N4CCOCC4)c3)c(C)nc2s1 [ND-020032]
6. Cc1cn2c(C(=O)Nc3ccc(Oc4ccc(C(F)(F)F)cc4)cc3)c(C)nc2s1 [ND-020040]
7. Cc1cn2c(C(=O)NCc3ccc(F)c(N4CCOCC4)c3)c(C)nc2s1 [ND-020076]

> 4.49
> 4.49
> 4.49
> 4.49
> 4.49
> 4.49
> 4.49

I need pIC50 for every entry listed below, if you could help.
1. Cc1nc2sc(C(F)(F)F)cn2c1C(=O)NCc1ccc(N(C)C)cc1 [ND-020024]
2. Cc1nc2sc(C(F)(F)F)cn2c1C(=O)NCc1ccc(Cl)cc1 [ND-020015]
3. Cc1cn2c(C(=O)NCc3ccc4c(c3)OCC4)c(C)nc2s1 [ND-020018]
4. Cc1cn2c(C(=O)NCc3cccc(Oc4ccc(C(F)(F)F)cc4)c3)c(C)nc2s1 [ND-020057]

1: > 4.49; 2: > 4.49; 3: > 4.49; 4: > 4.49

For each listed entry, give its pIC50.
1. CCc1nc2sc(C)cn2c1C(=O)NCc1ccc(-c2ccc(C(F)(F)F)cc2)cc1 [ND-020043]
2. Cc1nc2sc(Cl)cn2c1C(=O)Nc1ccc(Oc2ccc(C(F)(F)F)cc2)cc1 [ND-020041]
3. CNc1ccc(CNC(=O)c2c(C)nc3sc(C)cn23)cc1 [ND-020021]
4. Cc1cn2c(C(=O)NCc3ccc(N4CCOCC4)cc3)c(C)nc2s1 [ND-020033]

1: > 4.49; 2: > 4.49; 3: > 4.49; 4: 4.49 to 4.70

Please state pIC50 for every molecule in the list that follows.
1. Cc1cn2c(C(=O)NCc3ccc4c(ccn4C)c3)c(C(F)(F)F)nc2s1 [ND-020080]
2. Cc1nn2c(C(=O)OCc3ccccc3)c(C)nc2s1 [ND-010475]

1: > 4.49; 2: > 4.49

For each of the molecules below, note its pIC50.
1. Cc1cn2c(C(=O)NCc3ccc4c(ccn4C)c3)c(C)nc2s1 [ND-020079]
2. Cc1cn2c(C(=O)NCc3cc(Cl)cc(Cl)c3)c(C)nc2s1 [ND-020005]
3. Cc1cn2c(C(=O)NCc3cccc(OC(C)C)c3)c(C)nc2s1 [ND-020030]
4. Cc1cn2c(C(=O)NCc3ccc(N4CC(C)CC(C)C4)cc3)c(C)nc2s1 (centres unmarked) [ND-020069]
5. Cc1cn2c(C(=O)NCc3cccc(N4CC(C)OC(C)C4)c3)c(C)nc2s1 (centres unmarked) [ND-020075]
6. CCc1nc2sc(C)cn2c1C(=O)NCc1ccc(Oc2ccc(C(F)(F)F)cc2)cc1 [ND-020054]

> 4.49
> 4.49
> 4.49
4.49 to 4.70
> 4.49
4.49 to 4.70

meta.source: patent US9605002B2
